The following compounds are listed with their measured inhibition at 0.3 µM values.
- targetDesc: μ opioid receptor (MOP) (Homo sapiens, UniProt P35372)
- Construct: host or cells: CHO-K1
- Sequence (P35372 whole entry): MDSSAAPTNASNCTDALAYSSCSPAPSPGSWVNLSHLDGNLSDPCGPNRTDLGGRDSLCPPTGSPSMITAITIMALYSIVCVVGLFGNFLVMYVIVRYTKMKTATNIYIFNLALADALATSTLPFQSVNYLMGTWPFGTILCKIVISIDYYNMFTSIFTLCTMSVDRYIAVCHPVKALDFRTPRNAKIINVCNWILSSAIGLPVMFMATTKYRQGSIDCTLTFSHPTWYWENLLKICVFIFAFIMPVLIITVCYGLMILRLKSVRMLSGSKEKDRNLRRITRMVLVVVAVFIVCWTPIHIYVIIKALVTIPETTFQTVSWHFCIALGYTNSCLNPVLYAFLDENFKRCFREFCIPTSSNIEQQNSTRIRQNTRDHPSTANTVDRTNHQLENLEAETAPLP
- measurementNotes: biochemical
- Assay type: binding
- conditionContext: 0.3 μM; read-out: % inhibition of binding, MOP
State just the number; it will be interpreted in %.

Below: 6 compounds and their reported inhibition at 0.3 µM.
[
  {
    "compound": "CC[C@H](O)C(C[C@@H](C)N)(c1ccccc1)c1ccccc1 [(3S,6R)-DNML, (3S,6R)-6-amino-4,4-diphenylheptan-3-ol]",
    "inhibition at 0.3 µM, %": 9
  },
  {
    "compound": "CC[C@H](O)C(C[C@@H](C)NC)(c1ccccc1)c1ccccc1 [(3S,6R)-NML]",
    "inhibition at 0.3 µM, %": 2
  },
  {
    "compound": "CC[C@H](O)C(C[C@H](C)N)(c1ccccc1)c1ccccc1 [(3S,6S)-DNML, (3S,6S)-6-amino-4,4-diphenylheptan-3-ol]",
    "inhibition at 0.3 µM, %": 38
  },
  {
    "compound": "CCC1=N[C@H](C)CC1(c1ccccc1)c1ccccc1 [(R)-EMDP]",
    "inhibition at 0.3 µM, %": -4
  },
  {
    "compound": "CC[C@@H](O)C(C[C@H](C)N)(c1ccccc1)c1ccccc1 [(3R,6S)-DNML, (3R,6S)-6-amino-4,4-diphenylheptan-3-ol]",
    "inhibition at 0.3 µM, %": -3
  },
  {
    "compound": "CC[C@@H](O)C(C[C@@H](C)N)(c1ccccc1)c1ccccc1 [(3R,6R)-DNML, (3R,6R)-6-amino-4,4-diphenylheptan-3-ol]",
    "inhibition at 0.3 µM, %": -7
  }
]

In: Bench note: what inhibition at 0.3 µM did CC[C@@H](O)C(C[C@@H](C)NC)(c1ccccc1)c1ccccc1 [(3R,6R)-NML] show?
Out: 4

In: inhibition at 0.3 µM for CC[C@@H](O)C(C[C@H](C)NC)(c1ccccc1)c1ccccc1 [(3R,6S)-NML] ?
Out: 1

In: Consider the compound shown here: CC[C@H](O)C(C[C@H](C)NC)(c1ccccc1)c1ccccc1 [(3S,6S)-NML] What is its recorded inhibition at 0.3 µM?
Out: 65
